This collection of values is drawn from patent US20160222014A1.

- systemName: FAK phosphorylated at Y397 in HEK-FAK cell line overexpressing human FL FAK protein (Homo sapiens)
- Construct: expressed in transfected cells
- Sequence (Q05397 whole entry): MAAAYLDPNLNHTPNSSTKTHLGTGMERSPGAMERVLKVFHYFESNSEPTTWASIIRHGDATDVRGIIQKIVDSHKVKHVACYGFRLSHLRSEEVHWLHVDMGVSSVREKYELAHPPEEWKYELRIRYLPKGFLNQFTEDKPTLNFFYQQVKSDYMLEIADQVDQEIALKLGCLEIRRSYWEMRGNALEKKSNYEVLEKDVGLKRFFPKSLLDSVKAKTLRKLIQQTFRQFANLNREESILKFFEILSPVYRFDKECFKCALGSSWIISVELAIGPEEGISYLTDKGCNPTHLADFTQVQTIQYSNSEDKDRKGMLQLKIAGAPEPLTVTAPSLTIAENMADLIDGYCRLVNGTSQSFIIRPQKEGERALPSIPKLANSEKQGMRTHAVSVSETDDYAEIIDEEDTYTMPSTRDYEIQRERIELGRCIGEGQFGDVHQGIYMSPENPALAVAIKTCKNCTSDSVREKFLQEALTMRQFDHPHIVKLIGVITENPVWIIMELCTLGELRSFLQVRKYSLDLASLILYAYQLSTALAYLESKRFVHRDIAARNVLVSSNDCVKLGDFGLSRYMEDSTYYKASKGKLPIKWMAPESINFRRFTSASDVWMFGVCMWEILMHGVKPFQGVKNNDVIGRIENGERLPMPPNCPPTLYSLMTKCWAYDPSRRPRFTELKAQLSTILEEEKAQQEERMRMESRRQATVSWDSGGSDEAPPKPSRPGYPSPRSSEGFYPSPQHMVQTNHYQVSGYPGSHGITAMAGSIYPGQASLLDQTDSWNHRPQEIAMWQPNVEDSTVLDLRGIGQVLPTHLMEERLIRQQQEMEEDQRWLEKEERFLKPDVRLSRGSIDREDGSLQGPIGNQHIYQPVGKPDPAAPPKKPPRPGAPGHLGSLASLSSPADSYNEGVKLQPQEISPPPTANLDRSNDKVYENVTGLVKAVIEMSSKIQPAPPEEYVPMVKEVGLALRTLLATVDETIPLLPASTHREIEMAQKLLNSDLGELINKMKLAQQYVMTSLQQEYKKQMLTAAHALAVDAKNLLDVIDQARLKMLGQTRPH
- procedureSummary: Cell based assay, Phospho-FAK ELISA
- conditionDescription: HEK stb; read-out: pFAK EC50 (μM) HEK stb
Exercise: state measured EC50 for each of the compounds provided.

Ask: What measured EC50 goes with `Cn1cc(Nc2ncc3ccn(S(=O)(=O)c4ccccc4C#N)c3n2)cn1` ?
Reply: > 1 µM

Ask: What measured EC50 goes with CN(c1ncccc1Cn1ccc2cnc(Nc3ccc4c(c3)CC3CNCCN43)nc21)S(C)(=O)=O (centres unmarked) ?
Reply: > 1 µM

Ask: What measured EC50 goes with `CN(c1ncccc1Cn1ncc2cnc(Nc3ccc(N4CCC(O)CC4)cc3)cc21)S(C)(=O)=O` ?
Reply: > 1 µM

Ask: What measured EC50 goes with `COc1cc(N2CCN(CCO)CC2)ccc1Nc1cc2c(ccn2S(=O)(=O)c2cccc3cccnc23)cn1` ?
Reply: < 0.02 µM

Ask: What measured EC50 goes with `N#Cc1ccccc1S(=O)(=O)n1ccc2cnc(Nc3ccc(N4CCNCC4)cc3)nc21` ?
Reply: > 1 µM

Ask: What measured EC50 goes with `N#Cc1ccccc1S(=O)(=O)n1ccc2cnc(Nc3ccc(N4CCNCC4)c(F)c3)nc21` ?
Reply: > 1 µM

Ask: What measured EC50 goes with `FC(F)Oc1ccccc1Cn1ccc2cnc(Nc3ccc4ncsc4c3)nc21` ?
Reply: > 1 µM

Ask: What measured EC50 goes with `COc1cc(Nc2ncc3ccn(S(=O)(=O)c4cccc5cccnc45)c3n2)ccc1N1CCNCC1` ?
Reply: < 0.02 µM
